Recorded values, source paper PMC9482650.

Biological target: T1, MPDZ_12, O75970
T1 sequence (O75970 1857-1958, limits assumed, looked up): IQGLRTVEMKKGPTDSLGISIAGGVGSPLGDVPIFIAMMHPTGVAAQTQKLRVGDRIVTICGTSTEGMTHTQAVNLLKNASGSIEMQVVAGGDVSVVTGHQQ
Test: holdup assay
Set-up: key: below the threshold = too weak to quantify, mostly under pKd 3.1 to 4
Conditions: plain residues with an end cap or a label only (N-terminal biotin on a linker: ado-ado)
OBSERVABLE: pKd

The cases that follow already have their pKd on record.
BINDER	pKd
LPAVCYDIDI [PTTG2, Q9NZH5]	3.48
DGVNEKVSCV [HTR2A, P28223]	below the threshold
KPGKGSETVV [FZD4, Q9ULV1]	below the threshold
AEASVACSLC [PTGIR, P43119]	3.48

Could you share which pKd value was measured for VKRNSKETVV [MARCHF3, Q86UD3] ?
below the threshold

pKd lookup needed for NISYRRESAI [KCNJ4, P48050] , thanks.
below the threshold

State the recorded pKd for this entry: NTANRRTTPV [CACNG2, Q9Y698]
below the threshold

Reported pKd for SVTSERETNI [SLC16A7, O60669] : what is it?
below the threshold
